MIC Enterococcus faecalis (GC 2242) for assorted molecules
tested on: Enterococcus sp.; assay: In vitro antibacterial evaluation: minimum inhibitory concentration (MIC), broth dilution method; type: cell-based; conditions: broth dilution, 5×10^5 CFU/mL, 18 hours at 35° C.

Worked cases, MIC Enterococcus faecalis (GC 2242) given:
Exercise: Need MIC Enterococcus faecalis (GC 2242) of COC1CCC2(C)C(CCC3C2CCC2(C)C(C(C)CCC4OCC5OC(OC6C(CO)OC(Oc7ccc(CC8NC(=O)C(C(C)c9ccccc9)NC(=O)CNC(=O)C(CO)NC(=O)C(C(O)C9CNC(=N)N9C9OC(CO)C(O)C(O)C9O)NC(=O)C(C(O)C9CNC(=N)N9)NC8=O)cc7)C(O)C6O)C(O)C(O)C5O4)CCC32)C1 (centres unmarked) , thanks.
Key: 32 µg/mL

Exercise: Note, next up: CC(c1ccccc1)C1NC(=O)CNC(=O)C(CO)NC(=O)C(C(O)C2CNC(=N)N2C2OC(CO)C(O)C(O)C2O)NC(=O)C(C(O)C2CNC(=N)N2)NC(=O)C(Cc2ccc(OC3OC(CO)C(OC4OC5COC(CC(C)(C)C)OC5C(O)C4O)C(O)C3O)cc2)NC1=O (centres unmarked)
Key: 2 µg/mL

Exercise: Note, next up: CC(c1ccccc1)C1NC(=O)CNC(=O)C(CO)NC(=O)C(C(O)C2CNC(=N)N2C2OC(CO)C(O)C(O)C2O)NC(=O)C(C(O)C2CNC(=N)N2)NC(=O)C(Cc2ccc(OC3OC(CO)C(OC4OC5COC(CCc6ccccc6)OC5C(O)C4O)C(O)C3O)cc2)NC1=O (centres unmarked)
Key: 4 µg/mL

Exercise: Note, next up: CC(c1ccccc1)C1NC(=O)CNC(=O)C(CO)NC(=O)C(C(O)C2CNC(=N)N2C2OC(CO)C(O)C(O)C2O)NC(=O)C(C(O)C2CNC(=N)N2)NC(=O)C(Cc2ccc(OC3OC(CO)C(OC4OC5COC(Cc6ccc(Br)cc6)OC5C(O)C4O)C(O)C3O)cc2)NC1=O (centres unmarked)
Key: <0.5 to 2 µg/mL

// next item, MIC Enterococcus faecalis (GC 2242) requested
Exercise: Need MIC Enterococcus faecalis (GC 2242) of CC(C)=CCCC(C)C1OCC2OC(OC3C(CO)OC(Oc4ccc(CC5NC(=O)C(C(C)c6ccccc6)NC(=O)CNC(=O)C(CO)NC(=O)C(C(O)C6CNC(=N)N6C6OC(CO)C(O)C(O)C6O)NC(=O)C(C(O)C6CNC(=N)N6)NC5=O)cc4)C(O)C3O)C(O)C(O)C2O1 (centres unmarked) , thanks.
Key: 32 µg/mL
